assay: adipocyte viability effects, profiling panel, cell-based, 3T3-L1 adipocytes, calcein-AM fluorescence, 48 h, basal (AID 1163); conditions: 3T3-L1 adipocytes viability, higher = more signal; also: test concentration not given here
measurement_kind: z-score
Answer with the value's number alone.

// known answers, use as guide
CCOC(=O)[C@H](CC(C)C)NC(=O)CCC1CC(OC(=O)NCc2ccc3c(c2)OCO3)CC2(CCCC(COC(=O)NCc3cccc(C(F)(F)F)c3)O2)O1 (stereo partly specified)	0.214
COC(=O)[C@@H]1CC[C@@H](C)[C@H](c2ccc(Br)cc2)N1	0.931
COC(=O)CC=C[C@@H](C)[C@@H](C=NOC(C)CN1CCCc2nc(C)c(C)cc21)OC (stereo partly specified)	-0.274
COC(=O)CC=C[C@@H](C)[C@@H](C=NO[C@@H](C)c1cn([C@H](CO)Cc2ccccc2)nn1)OC	1.03
CCCNC(=O)OC[C@H]1O[C@H](CCON=Cc2ccc(C(=O)N3[C@H](c4ccc(C)cc4)[C@@H](C)CC[C@H]3C(=O)OC)cc2)C=C[C@@H]1Oc1ccc(OC)cc1	0.885
C[C@@H](c1ccccc1)N1C(=O)[C@H]2[C@H]3[C@H](O)[C@H](O)CC(=NO[C@@H]4O[C@H](CO)[C@@H](O)[C@H](O)[C@H]4O)[C@H]3CC[C@H]2C1=O	0.221

Documented z-score of COc1ccc(COC(=O)NN=C2C[C@@H](O)[C@@H](O)[C@@H]3[C@@H]4C(=O)N(c5cccc(Oc6ccccc6)c5)C(=O)[C@@H]4CC[C@@H]23)cc1 : -0.518

Documented z-score of CC(=O)OC[C@H]1OC(ON=CC[C@@H]2C=C[C@H](OC(C)=O)[C@@H](COC(C)=O)O2)[C@H](OC(C)=O)[C@@H](OC(C)=O)[C@@H]1OC(C)=O (stereo partly specified) : -0.403

Documented z-score of O=C1[C@H]2[C@H]3[C@H](O)[C@H](O)CC(=NOCc4ccccc4)[C@@H]3CC[C@H]2C(=O)N1Cc1ccc2c(c1)OCO2 : -0.121

Documented z-score of COc1ccc(COC(=O)NN=C2C[C@@H](O)[C@@H](O)[C@@H]3[C@@H]4C(=O)N(c5ccc(F)cc5F)C(=O)[C@@H]4CC[C@H]23)cc1 : 0.232

Documented z-score of CC(C)=CCCC(C)=CCON=C1C[C@@H](O)[C@@H](O)[C@@H]2[C@@H]3C(=O)N(c4ccc(F)cc4F)C(=O)[C@@H]3CC[C@@H]12 : 0.425

###

Recorded z-score for the following compounds
assay: basal HepG2 mitochondrial membrane potential changes, profiling panel, cell-based, JC-1 fluorescence, 24 h, 100 nL compound (AID 1167); details: higher = more signal; also: test concentration not given here
Answer with the value's number alone.

// known answers, use as guide
COC(=O)CC=C[C@@H](C)[C@@H](C=NO[C@@H](C)c1cn([C@H](CO)Cc2ccccc2)nn1)OC	0.341
CCOC(=O)[C@H](Cc1ccccc1)NC(=O)CCC1CC(OC(=O)NCCc2ccc(F)cc2)CC2(CCCC(COC(=O)NCC3CCCCC3)O2)O1 (stereo not given in full)	0.809
C[C@@H]1CC[C@H]2C(=O)O[C@@H](Cc3ccccc3)CN2[C@H]1c1ccc(Br)cc1	-0.225

Documented z-score of O=C1[C@H]2[C@H]3[C@H](O)[C@H](O)CC(=NOC[C@@H](O)COCc4ccco4)[C@H]3CC[C@H]2C(=O)N1C[C@@H]1CCCO1 : -0.809

Documented z-score of CCOC(=O)[C@H](CC(C)C)NC(=O)CCC1CC(OC(=O)NCc2ccc3c(c2)OCO3)CC2(CCCC(COC(=O)NCC(c3ccccc3)c3ccccc3)O2)O1 (stereo not given in full) : -0.106

###

molecular target: Alpha-bungarotoxin (Bungarus multicinctus); assay: alpha-bungarotoxin binders on microarray, profiling panel, artefact control for SMM control protein annotation, biochemical, small-molecule microarray, Alexa647 label, 635/667 nm fluorescence (AID 1117); conditions: alpha-BTX-A647 binding fluorescence, higher = more signal
Would you mind labelling by composite z-score? At or over 0.4 is class 1, under is class 0.

The examples below pair each entry with its known result.
CC(C)CON=C1[C@H]2CCn3c(=O)n(Cc4cc5c(cc4Cl)OCO5)c(=O)n3[C@H]2[C@H](O)[C@@H]2O[C@H]12	class 0
CC1O[C@H]2C3=C(C(=O)[C@@H]4O[C@@H]4[C@H]3O)[C@@H]1C1[C@@H](C)OC=C3[C@H](O)C4O[C@@H]4C(=NOCc4ccccc4)[C@]312 (stereo not given in full)	class 0
O=C1C2=CC[C@H]3C(=O)N(c4cccc(Oc5ccccc5)c4)C(=O)[C@H]3[C@H]2[C@H](O)[C@@H]2O[C@H]12	class 0
COC(=O)CC=C[C@@H](C)[C@@H](C=NO[C@H](C)c1cn([C@@H]2COC[C@H]2O)nn1)NS(=O)(=O)c1ccc(C)cc1	class 0
CO[C@H]1COC(=O)[C@@H](C)COC(=O)[C@H](COCc2ccccc2)NC(=O)CC=C[C@H]1C	class 0
C[C@@H]1C=CCC(=O)OC[C@H]2O[C@@H](C=C[C@@H]2O)[C@H](C)C=CCC(=O)OC1	class 1
CON=C[C@@H](NS(=O)(=O)c1ccc(C)cc1)[C@H](C)C=CCC(=O)OC	class 0
CO[C@H]1COC(=O)[C@H](C)NC(=O)CC=C[C@@H](C)[C@H](OC)COC(=O)[C@@H](OCc2ccccc2)C=C[C@@H]1C	class 0
CC(=O)OC[C@H]1O[C@H](CC=NO[C@H](C)c2cn([C@H](CO)Cc3ccccc3)nn2)C=C[C@@H]1OC(C)=O	class 1
CON=C(C)CCC(=O)OC[C@H]1O[C@H](c2ccccc2)C=C[C@@H]1Oc1ccc(OC)cc1	class 0

Check if composite z-score >= 0.4 (inclusive). Item: CCOC(=O)[C@H](CC(C)C)NC(=O)CCC1CC(OC(=O)NCc2cccc3ccccc23)CC2(CCCC(COC(=O)NCCCN3CCCC3=O)O2)O1 (stereo not given in full) class 1

Check if composite z-score >= 0.4 (inclusive). Item: CC(C)CON=C1C[C@@H](O)[C@@H](O)[C@@H]2[C@@H]3C(=O)N(c4cccc(Oc5ccccc5)c4)C(=O)[C@@H]3CC[C@@H]12 class 1

Check if composite z-score >= 0.4 (inclusive). Item: CON=C[C@@H](C)[C@H](OCc1ccccc1)C(C)C class 0

Check if composite z-score >= 0.4 (inclusive). Item: CCOC(=O)[C@H](CC(C)C)NC(=O)CCC1CC(OC(=O)NCc2ccc3c(c2)OCO3)CC2(CCCC(COC(=O)NCC3CCCCC3)O2)O1 (stereo not given in full) class 1

Check if composite z-score >= 0.4 (inclusive). Item: CO[C@H]1COC(=O)[C@@H](C)COC(=O)[C@@H](OCc2ccccc2)C=C[C@@H]1C class 0

Check if composite z-score >= 0.4 (inclusive). Item: CCOC(=O)[C@H](CC(C)C)NC(=O)CCC1CC(OC(=O)NCc2cccc3ccccc23)CC2(CCCC(COC(=O)NCCc3ccc(Cl)cc3)O2)O1 (stereo not given in full) class 1

Check if composite z-score >= 0.4 (inclusive). Item: CCCNC(=O)OC[C@H]1O[C@H](CCON=Cc2ccc(C(=O)N3[C@H](c4ccc(C)cc4)[C@@H](C)CC[C@H]3C(=O)OC)cc2)C=C[C@@H]1Oc1ccc(OC)cc1 class 1

###

Recorded composite z-score for the following molecules
molecular target: Torsin-1A-interacting protein 1 (Homo sapiens); assay: LAP1 binders from COS7 cell lysate, primary screen, small-molecule microarray, 635/667 nm fluorescence (AID 1116); conditions: COS7-hLAP1 lysate binding, 635 nm fluorescence, higher = more signal
Answer with the value's number alone.

// known answers, use as guide
CC(=O)OC[C@H]1O[C@H](CC=NO[C@H](C)c2cn([C@H](CO)Cc3ccccc3)nn2)C=C[C@@H]1OC(C)=O	0.213
CO[C@H]1COC(=O)[C@H](C)NC(=O)CC=C[C@@H](C)[C@H](OC)COC(=O)[C@@H](OCc2ccccc2)C=C[C@@H]1C	0.129
COc1ccc(O[C@H]2C=C[C@@H](c3ccccc3)O[C@@H]2CON=C2[C@H]3CCn4c(=O)n(-c5ccccc5)c(=O)n4[C@H]3[C@H](O)[C@@H]3O[C@H]23)cc1	0.24

Please examine the following record next.
Documented composite z-score of CCOC(=O)[C@H](Cc1ccccc1)NC(=O)CCC1CC(OC(=O)NCCc2ccc(F)cc2)CC2(CCCC(COC(=O)NCC3CCCCC3)O2)O1 (some centres undefined) : 0.237

###

assay: E. coli DRC41 culture turbidity changes, primary screen, E. coli filamentation inducer project, strain DRC41, OD650, 48 h (AID 1152);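 also: E. coli MC1000 strain DRC41 lacking acrAB efflux pump and sulA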; conditions: E. coli DRC41 (acrAB sulA), higher = more signal, called active from +8 up or from −8 down
measurement_kind: z-score
Answer with the value's number alone.

// known answers, use as guide
COc1cccc([C@H]2Oc3ccc(OC)cc3C(=NO[C@@H]3O[C@H](COC(C)=O)[C@@H](OC(C)=O)[C@H](OC(C)=O)[C@H]3OC(C)=O)[C@@H]2O)c1	-1.34
CC(=O)OC[C@H]1O[C@H](C#Cc2ccccc2)C=C[C@@H]1OC(C)=O	0.714

Please examine the following record next.
Documented z-score of CO[C@@H]1COC(=O)CC=C[C@H](C)[C@H](OC)COC(=O)[C@H](C)NC(=O)CC=C[C@H]1C : 0.525
